- measured target: 2′-deoxynucleoside 5′-phosphate N-hydrolase 1 (HsDNPH1) (Homo sapiens, UniProt O43598, E104Q)
- Construct: gene DNPH1
- Sequence (O43598 2-174 E104Q): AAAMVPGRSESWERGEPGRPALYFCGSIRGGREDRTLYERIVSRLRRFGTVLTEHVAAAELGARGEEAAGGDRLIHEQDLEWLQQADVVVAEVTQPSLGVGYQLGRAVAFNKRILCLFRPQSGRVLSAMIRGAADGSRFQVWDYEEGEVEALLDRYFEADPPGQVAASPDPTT
- assay: ITC; also stopped-flow UV binding kinetics (KD app […]) and differential UV spectroscopy
recorded metric: pKd
# pKd is unitless: minus log10 of the molar concentration; print number only

Reported pKd ( O=c1[nH]c(=O)n([C@H]2C[C@H](O)[C@@H](COP(=O)(O)O)O2)cc1CO [5hmdUMP] ) = 5.80

###

Sequence of the target: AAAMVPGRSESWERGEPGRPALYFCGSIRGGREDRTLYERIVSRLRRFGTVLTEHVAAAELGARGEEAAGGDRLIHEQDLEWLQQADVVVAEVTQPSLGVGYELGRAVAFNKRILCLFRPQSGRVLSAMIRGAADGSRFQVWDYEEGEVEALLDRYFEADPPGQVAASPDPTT
recorded metric: pKi
# pKi is unitless: minus log10 of the molar concentration; print number only

Reported pKi ( O=P(O)(O)OC[C@H]1OC(O)[C@H](O)[C@@H]1O (stereo partly shown) [ribose 5-phosphate] ) = 2.16

Values from paper PMC12751057
